B1: 5KPH (parent)
chain: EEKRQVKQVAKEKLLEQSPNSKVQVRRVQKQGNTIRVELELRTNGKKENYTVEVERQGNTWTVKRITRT

variants of: B1; experiment: folding stability dG (cDNA display proteolysis); higher = more stable; settings: PBS, room temperature

Variant key | folding stability dG [kcal/mol]
K22Y | 4.05
N20P | 2.3
R65W | 3.63
Q24M | 4.43
K64V | 4.3
Q24D | 3.53
T60N | 4.07
G32A | 3.18
K47V | 4.06
G45K | 3.4
E53Y | 4.21
T60Q | 4.23
V63L | 2.88
V23E | 1.2
K47I | 4.14
T67Q | 3.54
E48K | 3.22
R4F | 3.64
G58P | 2.25
P19G | 2.7
L41H | 2.19
T51W | 3.98
N20F | 3.35
Y50R | 1.2
L39M | 3.66
I66K | 1.54
Q8L | 3.51
Q5N | 3.54
V37W | 1.87
K7T | 4.58
E40C | 3.51
Q8C | 3.49
K47M | 3.77
K11I | 4.55
V54C | 3.36
I35R | 2.6
T51E | 3.87
K64Q | 3.56
T60F | 3.96
E12A | 4.15
T51F | 3.66
W61D | 1.07
N59H | 3.62
E40L | 3.96
Q24L | 4.38
E16S | 3.55
